assay: NCI Yeast Anticancer Drug Screen. Data for the sgs1 strain (AID 173);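 further: 0% = growth of vehicle-only control cultures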; settings: S. cerevisiae sgs1 mutant, at 100.0 µM
Compounds without any hit were thinned out: in the full panel of roughly 79,000, 15% have a hit. Active and inactive are the calls of the source. No stated cut-off is given here; in the data, active means growth inhibition above about 70%; inactive means the rest.
Pick one and only one: active, inactive

Consider the worked cases shown below.
molecule	class.name
OC(CC(O)(C(F)(F)F)C(F)(F)F)c1ccc(C(O)CC(O)(C(F)(F)F)C(F)(F)F)cc1 (stereo unspecified)	active
BrC1C2CCC3OC3C12 (stereo unspecified)	active
Cn1c(-c2ccc(/C=N\N3CCN(/N=C/c4ccc(-c5c[n+]6ccsc6n5C)cc4)CC3)cc2)c[n+]2ccsc12	active
COC(=O)C1=C(C(=O)OC)CC(n2nnc(C(=O)OC)c2C(=O)OC)=CC1	inactive

Lookup: Call for entry `O=C(C#Cc1ccccc1)Nc1ccccc1` :
Found: active

Lookup: Call for entry `CCN(CC)CCNc1ccc(C)c2sc3ccc(O)cc3c(=O)c12` :
Found: active

---

assay: NCI Yeast Anticancer Drug Screen. Data for the bub3 strain (AID 167); settings: S. cerevisiae bub3 mutant strain, at 33.0 µM, active compounds read high
Compounds without any hit were thinned out: in the full panel of roughly 79,000, 15% have a hit. Activity calls are given as the source filed them. No stated cut-off is given here; in the data, active means growth inhibition above about 70%; inactive means the rest.
Exercise: for every item that follows, state its recorded growth inhibition.

molecule	obs.value
Cc1cc2nc3ccccc3n2c2ccccc12	5% (inactive)
COc1ccc2c(c1)CCCC(Br)C2=O (stereo not given)	50% (inactive)

Dear reader, for each entry below, please note its growth inhibition.
1. COc1ccc(C2CC(C)(N3CCCC3)Oc3cc4c(cc32)OCO4)cc1 (stereo not given)
2. CCN(CC)CC(=O)c1ccc2cc(Cl)c3ccccc3c2c1
3. CC(C)CCC[C@@H](C)[C@H]1CC[C@H]2[C@@H]3CC[C@H]4C[C@H](N)CC[C@]4(C)[C@H]3CC[C@]12C
4. O=C(Cc1ccccc1)NN1C(=O)C(Cl)C1c1cc(Br)cc(Br)c1O (stereo not given)
5. OC(c1ccccc1)(c1ccccc1)c1nccc2ccccc12
6. CNC(=S)N/N=C(/C)CCC/C(C)=N/NC(=S)NC

Found:
22% (inactive)
98% (active)
-4% (inactive)
96% (active)
25% (inactive)
73% (active)

Dear reader, for each entry below, please note its growth inhibition.
1. N#CCC(=O)N/N=C(\c1ccccc1)C(c1ccccc1)C1(O)C(=O)Nc2c(Cl)ccc(Cl)c21 (stereo not given)
2. O=C1c2cccc3cccc(c23)C(=O)N1CCNCCN1C(=O)c2cccc3cccc(c23)C1=O

Found:
1. 15% (inactive)
2. -4% (inactive)

---

assay: NCI Yeast Anticancer Drug Screen. Data for the bub3 strain (AID 167); settings: S. cerevisiae bub3 mutant strain, at 33.0 µM
This is part of a sample that, as a whole, favours compounds with a hit. Of some 79,000 tested, about 15% had one in any assay. Active and inactive are the calls of the source. Rule as the data show it: active = growth inhibition above about 70%; inactive = the rest.
Pick one and only one: active, inactive

Consider the worked cases shown below.
compound	class.name
O=C1C2=C(c3ccccc31)C(c1ccccc1)N1C(=O)CSC1=N2 (configuration not stated)	active
O=CC1(F)CC1(c1ccccc1)c1ccccc1 (configuration not stated)	inactive
COC(=O)C(=O)CC(=O)c1cccc(OC)c1	inactive
CCCCCCCCCC(=O)N(CCC)CCC	inactive
CCc1c(Cl)c(C)c(Cl)c(O)c1Cl	active
Cc1cccc2c(Cl)c3cccc(C)c3nc12	inactive

Moving on to another compound below.
Lookup: Call for entry `COc1cc(C(=O)C=O)cc(OC)c1OC` :
Found: inactive
